The molecules listed here are annotated with their EC50.
# System: hypoxia-inducible endogenous VEGF expression
# experimentalProtocol: Hypoxia-inducible endogenous VEGF expression ELISA in HeLa cells, dose-response EC50 (Table 3)
# Type: cell-based, human
# experimentalSetup: Homo sapiens; HeLa cells, hypoxic conditions (1% O2), VEGF ELISA of conditioned media; read-out: ELISA EC50
testReadout: EC50

[[record]]
molecule = "CCC(CO)(CO)COc1ccc([C@H]2c3[nH]c4ccc(Cl)cc4c3CCN2C(=O)Oc2ccc(Cl)cc2)cc1"
testreadout = "EC50"
measured = "< 8 nM"

[[record]]
molecule = "CCC(=O)NCC(O)COc1ccc(C2c3[nH]c4ccc(Cl)cc4c3CCN2C(=O)Oc2ccc(Cl)cc2)cc1 (centres unmarked)"
testreadout = "EC50"
measured = "8 to 40 nM"

[[record]]
molecule = "CC(=O)Oc1ccc([C@@H]2c3[nH]c4ccc(Cl)cc4c3CCN2C(=O)Oc2ccc(Cl)cc2)cc1"
testreadout = "EC50"
measured = "40 to 200 nM"

[[record]]
molecule = "COC(=O)NCC(O)CCOc1ccc([C@H]2c3[nH]c4ccc(Cl)cc4c3CCN2C(=O)Oc2ccc(C)cc2)cc1 (some centres unmarked)"
testreadout = "EC50"
measured = "< 8 nM"

[[record]]
molecule = "C[Si](C)(C)CCS(=O)(=O)N1CCC(Oc2ccc(C3c4[nH]c5ccc(Cl)cc5c4CCN3C(=O)Oc3ccc(Cl)cc3)cc2)CC1 (centres unmarked)"
testreadout = "EC50"
measured = "< 8 nM"

[[record]]
molecule = "N#CCOc1ccc([C@H]2c3[nH]c4ccc(Cl)cc4c3CCN2C(=O)Oc2ccc(Cl)cc2)cc1"
testreadout = "EC50"
measured = "< 8 nM"

[[record]]
molecule = "N#CCOc1ccc(C2c3[nH]c4ccc(Cl)cc4c3CCN2C(=O)Oc2ccc(F)cc2)cc1 (centres unmarked)"
testreadout = "EC50"
measured = "8 to 40 nM"

[[record]]
molecule = "CCS(=O)(=O)NCC(O)CCOc1ccc([C@H]2c3[nH]c4ccc(Cl)cc4c3CCN2C(=O)Oc2ccc(C)cc2)cc1 (some centres unmarked)"
testreadout = "EC50"
measured = "< 8 nM"

[[record]]
molecule = "C#CCCCOc1ccc([C@H]2c3[nH]c4ccc(Cl)cc4c3CCN2C(=O)Oc2ccc(Cl)cc2)cc1"
testreadout = "EC50"
measured = "< 8 nM"

[[record]]
molecule = "C[Si](C)(C)CCS(=O)(=O)N1CCC(Oc2ccc([C@H]3c4[nH]c5ccc(Cl)cc5c4CCN3C(=O)Oc3ccc(F)cc3)cc2)CC1"
testreadout = "EC50"
measured = "< 8 nM"

[[record]]
molecule = "O=C(Oc1ccc(Cl)cc1)N1CCc2c([nH]c3ccc(Cl)cc23)[C@@H]1c1ccc(OC2CCN(c3ncccn3)CC2)cc1"
testreadout = "EC50"
measured = "< 8 nM"

[[record]]
molecule = "C[Si](C)(C)CCS(=O)(=O)N1CCC(Oc2ccc(C3c4[nH]c5ccc(Cl)cc5c4CCN3C(=O)Oc3ccc(F)cc3)cc2)CC1 (centres unmarked)"
testreadout = "EC50"
measured = "< 8 nM"

[[record]]
molecule = "O=C(Oc1ccc(Cl)cc1)N1CCc2c([nH]c3ccc(Br)cc23)C1c1ccc(OCC(O)CO)cc1 (centres unmarked)"
testreadout = "EC50"
measured = "< 8 nM"

[[record]]
molecule = "O=C(NCC(O)COc1ccc(C2c3[nH]c4ccc(Cl)cc4c3CCN2C(=O)Oc2ccc(Cl)cc2)cc1)C1CC1 (centres unmarked)"
testreadout = "EC50"
measured = "8 to 40 nM"


Reference source: patent US20120157401A1
